experiment: Aqueous solubility of compound at neutral pH; format: physicochemical; conditions: aqueous solution
reported_metric: solubility (µg/mL)
Please state the figure in µg/mL; there is no need to write the unit.

Please fill in: solubility reported for COc1cc2c(cc1OC)CN(CCc1ccc(NC(=O)c3cccc4c(=O)c5cccc(OC)c5[nH]c34)cc1)CC2 = 0.123

---

test: Cmax in Sprague-Dawley rat at 20 mg/kg, po measured upto 24 hrs in presence of 10 mg/kg encequidar by LC-MS/MS analysis; assay type: ADME, organism-based; set-up: route oral, dose 20 mg/kg, time <=24; settings: in vivo
reported_metric: Cmax (ng/mL)
Please state the figure in ng/mL; there is no need to write the unit.

Please fill in: Cmax reported for CC(=O)O[C@H]1C(=O)[C@@]2(C)[C@H]([C@H](OC(=O)c3ccccc3)[C@]3(O)C[C@H](OC(=O)[C@H](O)[C@@H](NC(=O)c4ccccc4)c4ccccc4)C(C)=C1C3(C)C)[C@]1(OC(C)=O)CO[C@@H]1C[C@@H]2O [PACLITAXEL] = 1250

---

experiment: Ratio of drug concentration in BALB/c mouse lung to plasma at 20 mg/kg, po measured upto 24 hrs in presence of 10 mg/kg encequidar by LC-MS/MS analysis; type: ADME, organism-based
reported_metric: Kp at 24 h

Please fill in: Kp at 24 h reported for CC(=O)O[C@H]1C(=O)[C@@]2(C)[C@H]([C@H](OC(=O)c3ccccc3)[C@]3(O)C[C@H](OC(=O)[C@H](O)[C@@H](NC(=O)c4ccccc4)c4ccccc4)C(C)=C1C3(C)C)[C@]1(OC(C)=O)CO[C@@H]1C[C@@H]2O = > 1

---

molecular target: UniProtKB Q92887; assay: Inhibition of sulfasalazine-stimulated MRP2 ATPase activity (unknown origin) in presence of GSH
Sequence (Q92887 whole entry): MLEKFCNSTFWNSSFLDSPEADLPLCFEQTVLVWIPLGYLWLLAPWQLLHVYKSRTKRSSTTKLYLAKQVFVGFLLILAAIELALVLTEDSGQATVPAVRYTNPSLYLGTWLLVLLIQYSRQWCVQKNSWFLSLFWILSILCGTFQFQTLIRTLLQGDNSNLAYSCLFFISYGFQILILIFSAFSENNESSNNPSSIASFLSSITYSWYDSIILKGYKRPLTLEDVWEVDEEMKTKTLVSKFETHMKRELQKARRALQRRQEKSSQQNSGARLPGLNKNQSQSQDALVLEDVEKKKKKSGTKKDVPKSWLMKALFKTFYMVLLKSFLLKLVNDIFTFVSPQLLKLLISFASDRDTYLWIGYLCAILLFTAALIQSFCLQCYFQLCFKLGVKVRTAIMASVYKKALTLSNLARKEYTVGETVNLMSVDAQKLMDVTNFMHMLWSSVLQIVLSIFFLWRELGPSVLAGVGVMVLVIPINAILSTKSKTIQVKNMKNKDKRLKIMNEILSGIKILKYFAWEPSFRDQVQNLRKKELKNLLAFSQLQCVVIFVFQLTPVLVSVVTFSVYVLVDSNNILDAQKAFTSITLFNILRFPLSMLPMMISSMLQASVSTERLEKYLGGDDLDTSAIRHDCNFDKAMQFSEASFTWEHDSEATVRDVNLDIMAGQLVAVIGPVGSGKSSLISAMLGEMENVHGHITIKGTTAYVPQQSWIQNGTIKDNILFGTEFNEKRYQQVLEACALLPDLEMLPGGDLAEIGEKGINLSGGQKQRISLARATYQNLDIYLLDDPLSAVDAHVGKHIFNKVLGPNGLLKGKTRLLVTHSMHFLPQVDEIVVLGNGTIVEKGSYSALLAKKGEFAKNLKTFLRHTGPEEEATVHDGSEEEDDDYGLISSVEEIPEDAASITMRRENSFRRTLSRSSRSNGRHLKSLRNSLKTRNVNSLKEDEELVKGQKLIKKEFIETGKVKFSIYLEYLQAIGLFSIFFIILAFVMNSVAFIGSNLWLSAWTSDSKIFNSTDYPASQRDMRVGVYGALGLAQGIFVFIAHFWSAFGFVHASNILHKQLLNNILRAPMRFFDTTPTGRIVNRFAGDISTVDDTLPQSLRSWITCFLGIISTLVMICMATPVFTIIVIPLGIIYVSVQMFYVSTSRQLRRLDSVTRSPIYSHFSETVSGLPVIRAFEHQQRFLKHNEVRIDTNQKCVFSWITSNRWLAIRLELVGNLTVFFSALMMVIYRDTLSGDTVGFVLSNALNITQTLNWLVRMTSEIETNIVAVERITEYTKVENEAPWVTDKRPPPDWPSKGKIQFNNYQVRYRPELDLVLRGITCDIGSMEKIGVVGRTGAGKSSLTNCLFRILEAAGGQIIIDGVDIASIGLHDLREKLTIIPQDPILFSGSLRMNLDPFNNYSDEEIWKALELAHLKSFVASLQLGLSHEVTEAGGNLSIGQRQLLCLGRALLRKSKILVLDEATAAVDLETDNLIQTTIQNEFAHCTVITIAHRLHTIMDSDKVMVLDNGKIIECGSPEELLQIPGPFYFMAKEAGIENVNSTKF
reported_metric: IC50

Please fill in: IC50 reported for COc1cc2c(cc1OC)CN(CCc1ccc(-n3nnc(-c4cc(OC)c(OC)cc4NC(=O)c4cc(=O)c5ccccc5o4)n3)cc1)CC2 = > 100 µM

---

assay: Tmax in Beagle dog at 10 mg/kg, po measured upto 48 hrs by LC-MS/MS analysis; conditions: in vivo
reported_metric: Tmax (h)
Please state the figure in h; there is no need to write the unit.

Please fill in: Tmax reported for COc1cc2c(cc1OC)CN(CCc1ccc(-n3nnc(-c4cc(OC)c(OC)cc4NC(=O)c4cc(=O)c5ccccc5o4)n3)cc1)CC2 = 13.3

---

assay: AUClast in Sprague-Dawley rat at 3 mg/kg, iv measured upto 48 hrs by LC-MS/MS analysis; type: ADME, organism-based; parameters: route intravenous, dose 3 mg/kg, time <=48; conditions: in vivo
reported_metric: AUC(0-t) at 48 h (ng·h/mL)
Please state the figure in ng·h/mL; there is no need to write the unit.

Please fill in: AUC(0-t) at 48 h reported for COc1cc2c(cc1OC)CN(CCc1ccc(-n3nnc(-c4cc(OC)c(OC)cc4NC(=O)c4cc(=O)c5ccccc5o4)n3)cc1)CC2 = 619

---

experiment: Oral bioavailability in Beagle dog at 10 mg/kg measured upto 48 hrs by LC-MS/MS analysis; assay type: ADME, organism-based, Canis lupus familiaris; settings: in vivo
reported_metric: bioavailability (%)
Please state the figure in %; there is no need to write the unit.

Please fill in: bioavailability reported for COc1cc2c(cc1OC)CN(CCc1ccc(-n3nnc(-c4cc(OC)c(OC)cc4NC(=O)c4cc(=O)c5ccccc5o4)n3)cc1)CC2 = 11.2
